- study target: recombinant thioredoxin reductase 1 (TrxR1) (Homo sapiens)
- Sequence (Q16881 whole entry): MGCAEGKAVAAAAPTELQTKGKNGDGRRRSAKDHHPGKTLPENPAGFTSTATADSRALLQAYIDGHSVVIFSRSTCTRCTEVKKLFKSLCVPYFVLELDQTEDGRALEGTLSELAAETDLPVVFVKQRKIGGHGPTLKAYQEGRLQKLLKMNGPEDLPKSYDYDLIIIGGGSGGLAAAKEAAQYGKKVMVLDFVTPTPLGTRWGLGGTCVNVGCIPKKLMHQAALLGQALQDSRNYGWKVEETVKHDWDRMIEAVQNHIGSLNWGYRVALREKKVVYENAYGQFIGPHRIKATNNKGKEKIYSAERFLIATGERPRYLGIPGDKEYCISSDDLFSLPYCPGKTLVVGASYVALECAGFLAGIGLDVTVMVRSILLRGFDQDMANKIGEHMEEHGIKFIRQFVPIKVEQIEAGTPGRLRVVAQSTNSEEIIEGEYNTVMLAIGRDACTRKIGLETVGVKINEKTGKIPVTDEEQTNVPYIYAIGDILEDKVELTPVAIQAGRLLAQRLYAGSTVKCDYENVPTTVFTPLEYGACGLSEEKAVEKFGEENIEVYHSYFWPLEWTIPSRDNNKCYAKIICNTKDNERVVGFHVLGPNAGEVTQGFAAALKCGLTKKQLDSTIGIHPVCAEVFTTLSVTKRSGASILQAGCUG
- assay procedure: Inhibition of recombinant TrxR1 (DTNB assay)
- Assay type: biochemical
- experimental conditions: Biological Example 4; assays of Biological Example 1; read-out: TrxR Inhibition
Structures can show the parent of a compound that is named as a salt.
measurement label: pIC50
Scale note: pIC50 = -log10(concentration in M).

>  <molecule>
CN1C(=O)[C@@H]2[C@H](C1=O)[C@H]1C(=O)C=C[C@@H]2N1Cc1ccccc1 (relative stereo)

>  <pIC50>
5.34

$$$$
>  <molecule>
O=C1C=C[C@H]2[C@@H]3C(=O)N(c4ccccc4)C(=O)[C@@H]3[C@@H]1N2Cc1ccc(-c2ccccc2)cc1 (relative stereo)

>  <pIC50>
5.84

$$$$
>  <molecule>
Cc1cccc(CN2[C@@H]3C(=O)C=C[C@H]2[C@@H]2C(=O)N(c4cccc(N5CCCCC5)c4)C(=O)[C@@H]23)c1 (relative stereo)

>  <pIC50>
5.80

$$$$
>  <molecule>
CC(C)(C)N1C(=O)C2C(C1=O)[C@@H]1C=CC(=O)[C@H]2N1Cc1ccccc1 (mixture of isomers)

>  <pIC50>
5.25

$$$$
>  <molecule>
O=C1C=CC2C3C(=O)N(c4ccccc4)C(=O)C3C1N2Cc1cc(F)cc(F)c1 (stereo not shown) [Example 43, Trifluoroacetate]

>  <pIC50>
5.80

$$$$

// Cc1cccc(CN2[C@@H]3C(=O)C=C[C@H]2[C@@H]2C(=O)N(c4cccc(Br)c4)C(=O)[C@@H]23)c1 (relative stereo) : pIC50 value = 5.91

The reported value for Cc1cccc(CN2[C@@H]3C(=O)C=C[C@H]2C2C(=O)N(c4cccc(N5CCOCC5)c4)C(=O)C23)c1 (stereo partly shown) in terms of pIC50 is 5.38

# molecule CC1=CC(=O)[C@@H]2C3C(=O)N(C4CCCCC4)C(=O)C3[C@H]1N2Cc1ccccc1 (stereo partly shown) ; its pIC50 = 5.11

====

- study target: UniProt:P00390
- assay procedure: Inhibition of recombinant GR (GSSG assay)
- Format: biochemical
- experimental conditions: Biological Example 1; 2 nM GR, 250 μM NADPH, 15 minutes incubation
Counter-ions that a name gives are not always drawn.
measurement label: IC50

Would you please look over these solved cases?
>  <molecule>
O=C1C=C[C@H]2[C@@H]3C(=O)N(c4ccccc4)C(=O)[C@@H]3[C@@H]1N2CCc1ccccc1 (relative stereo)

>  <IC50>
> 100 µM

$$$$
>  <molecule>
Cc1cccc(CN2[C@@H]3C(=O)C=C[C@H]2[C@@H]2C(=O)N(c4c(C)cccc4C)C(=O)[C@@H]23)c1 (relative stereo)

>  <IC50>
> 100 µM

$$$$
>  <molecule>
O=C1C=CC2C3C(=O)N(c4ccccc4)C(=O)C3C1N2Cc1ccc(Br)cc1 (stereo not drawn) [Example 6, Trifluoroacetate]

>  <IC50>
61.9 µM

$$$$

Query O=C1C=C[C@H]2[C@@H]3C(=O)N(c4ccccc4)C(=O)[C@@H]3[C@@H]1N2Cc1ccccc1 (relative stereo) yields IC50 of > 100 µM

Sample NS(=O)(=O)c1cccc(CN2[C@@H]3C(=O)C=C[C@H]2[C@@H]2C(=O)N(c4ccccc4)C(=O)[C@@H]23)c1 (relative stereo) ; IC50 observed: > 100 µM

IC50 reported for this molecule Cc1cccc(CN2[C@@H]3C(=O)C=C[C@H]2[C@@H]2C(=O)N(c4cccc(O)c4)C(=O)[C@@H]23)c1 (relative stereo) : > 100 µM

====

- study target: gluthathione reductase (GR) (Homo sapiens, UniProt P00390)
- Sequence (P00390 44-522): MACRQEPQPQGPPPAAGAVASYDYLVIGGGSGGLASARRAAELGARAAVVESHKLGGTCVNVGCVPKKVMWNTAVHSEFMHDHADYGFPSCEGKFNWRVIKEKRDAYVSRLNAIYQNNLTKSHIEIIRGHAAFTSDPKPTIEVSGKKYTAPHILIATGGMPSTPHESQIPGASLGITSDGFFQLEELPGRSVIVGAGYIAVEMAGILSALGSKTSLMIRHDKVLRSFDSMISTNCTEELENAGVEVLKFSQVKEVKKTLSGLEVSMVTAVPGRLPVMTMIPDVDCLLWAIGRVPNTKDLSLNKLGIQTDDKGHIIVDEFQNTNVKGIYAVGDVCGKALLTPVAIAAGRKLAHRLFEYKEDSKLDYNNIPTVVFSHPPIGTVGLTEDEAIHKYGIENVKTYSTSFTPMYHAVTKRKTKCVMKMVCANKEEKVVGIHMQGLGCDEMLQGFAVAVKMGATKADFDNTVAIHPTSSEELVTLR
- assay procedure: Inhibition of recombinant GR (GSSG assay)
- Format: biochemical
- experimental conditions: Biological Example 4; assays of Biological Example 1
pIC50: −log10 of the molar value. Structures can show the parent of a compound that is named as a salt.
pIC50 reference

Some compounds with recorded pIC50:
>  <compound>
Cc1cccc(CN2[C@@H]3C(=O)C=C[C@H]2[C@@H]2C(=O)N(c4cccc(N5CCCCC5)c4)C(=O)[C@@H]23)c1 (relative stereo)

>  <experimental value>
< 4.00

$$$$
>  <compound>
Cc1cccc(CN2[C@@H]3C(=O)C=C[C@H]2[C@@H]2C(=O)N(c4c(C)cccc4C)C(=O)[C@@H]23)c1 (relative stereo)

>  <experimental value>
< 4.00

$$$$
>  <compound>
O=C1C=C[C@H]2[C@@H]3C(=O)N(c4ccccc4)C(=O)[C@@H]3[C@@H]1N2Cc1ccccc1Cl (relative stereo)

>  <experimental value>
< 4.00

$$$$
>  <compound>
CC(c1ccccc1)N1C2C=CC(=O)C1C1C(=O)N(c3ccccc3)C(=O)C12 (stereo not drawn) [Example 5, Trifluoroacetate]

>  <experimental value>
< 4.00

$$$$
>  <compound>
NS(=O)(=O)c1cccc(CN2[C@@H]3C(=O)C=C[C@H]2[C@@H]2C(=O)N(c4ccccc4)C(=O)[C@@H]23)c1 (relative stereo)

>  <experimental value>
< 4.00

$$$$
>  <compound>
Cc1cccc(CN2[C@@H]3C(=O)C=C[C@H]2C2C(=O)N(C)C(=O)C23)c1 (stereo partly drawn)

>  <experimental value>
< 4.00

$$$$
>  <compound>
O=C1C=C[C@H]2C3C(=O)N(c4ccccc4)C(=O)C3[C@@H]1N2Cc1cccc(F)c1 (stereo partly drawn)

>  <experimental value>
4.53

$$$$
>  <compound>
O=C1C=C[C@H]2[C@@H]3C(=O)N(c4ccccc4)C(=O)[C@@H]3[C@@H]1N2Cc1ccccc1 (relative stereo)

>  <experimental value>
< 4.00

$$$$

The reported value for O=C1C=CC2C3C(=O)N(c4ccccc4)C(=O)C3C1N2Cc1cccc(Cl)c1 (stereo not drawn) [Example 42] in terms of pIC50 is 4.12

// field: pIC50; key: COC(=O)c1cccc(CN2[C@@H]3C(=O)C=C[C@H]2[C@H]2C(=O)N(c4ccccc4)C(=O)[C@H]23)c1 (relative stereo) ; value = < 4.00

====

- study target: recombinant thioredoxin reductase 1 (TrxR1) (Homo sapiens)
- assay procedure: Inhibition of recombinant TrxR1 (DTNB assay)
- Format: biochemical
- experimental conditions: Biological Example 1; 15 nM TrxR1, 250 μM NADPH, 15 minutes incubation; read-out: TrxR inhibition
Where a name gives a salt, the structure may show the parent alone.
measurement label: pIC50
Notebook: values listed as pIC50 are -log10 of the concentration (mol/L).

Worked cases, answers included:
>  <molecule>
CC1=CC(=O)C2C3C(=O)N(Cc4ccccc4)C(=O)C3C1N2Cc1ccccc1 (stereo not shown) [Example 15, Trifluoroacetate]

>  <study target>
recombinant thioredoxin reductase 1 (TrxR1) (Homo sapiens)

>  <pIC50>
5.84

$$$$
>  <molecule>
O=C1C=C[C@H]2[C@@H]3C(=O)N(c4ccccc4)C(=O)[C@@H]3[C@@H]1N2CCc1ccccc1 (relative stereo)

>  <study target>
recombinant thioredoxin reductase 1 (TrxR1) (Homo sapiens)

>  <pIC50>
5.76

$$$$
>  <molecule>
O=C1C=C[C@H]2[C@@H]3C(=O)N(c4ccccc4)C(=O)[C@@H]3[C@@H]1N2Cc1ccccc1 (relative stereo)

>  <study target>
recombinant thioredoxin reductase 1 (TrxR1) (Homo sapiens)

>  <pIC50>
5.67

$$$$
>  <molecule>
NS(=O)(=O)c1cccc(CN2[C@@H]3C(=O)C=C[C@H]2[C@@H]2C(=O)N(c4ccccc4)C(=O)[C@@H]23)c1 (relative stereo)

>  <study target>
recombinant thioredoxin reductase 1 (TrxR1) (Homo sapiens)

>  <pIC50>
5.88

$$$$
>  <molecule>
O=C1C=C[C@H]2[C@@H]3C(=O)N(c4ccccc4)C(=O)[C@@H]3[C@@H]1N2Cc1ccc(F)cc1Cl (relative stereo)

>  <study target>
recombinant thioredoxin reductase 1 (TrxR1) (Homo sapiens)

>  <pIC50>
5.61

$$$$

Record COc1cccc(CN2[C@@H]3C(=O)C=C[C@H]2[C@@H]2C(=O)N(c4ccccc4)C(=O)[C@@H]23)c1 (relative stereo) , field pIC50: 5.71

Measured pIC50 of CS(=O)(=O)c1cccc(CN2[C@@H]3C(=O)C=C[C@H]2[C@@H]2C(=O)N(c4ccccc4)C(=O)[C@@H]23)c1 (relative stereo) : 5.73

====

Reported values of pIC50 for individual entries
- study target: UniProt:P00390
- assay procedure: Inhibition of recombinant GR (GSSG assay)
- Type: biochemical
- experimental conditions: Biological Example 4; assays of Biological Example 1
pIC50: −log10 of the molar value.

Recorded pIC50, per entry:
>  <compound>
Cc1cccc(CN2[C@@H]3C(=O)C=C[C@H]2[C@@H]2C(=O)N(c4cccc(N5CCOCC5)c4)C(=O)[C@@H]23)c1 (relative stereo) [Example 70]

>  <measurement label>
pIC50

>  <experimental value>
< 4.00

$$$$
>  <compound>
Cc1cccc(CN2[C@@H]3C(=O)C=C[C@H]2[C@@H]2C(=O)N(c4ccccc4)C(=O)[C@@H]23)c1 (relative stereo) [Example 21]

>  <measurement label>
pIC50

>  <experimental value>
< 4.00

$$$$

The compound CCN1C(=O)[C@@H]2[C@H](C1=O)[C@H]1C(=O)C=C[C@@H]2N1Cc1ccccc1 (relative stereo) [Example 47] showed pIC50 equal to < 4.00
